// pKd lookup, one value per entry
# TGT: T1, Programmed cell death protein 1 (PD-1), human (human, UniProt Q15116 25-167, limits assumed)
# T1 construct: also called full-length PD-1
# ASSAY SUMMARY: SPR affinity, column 'Affinity (nM)' of the drawn table
Keep it numeric: pKd is minus log10 of the concentration in mol/L.

Exercise: What does the record list as pKd for 1-C09-3 (antibody, V domains shown, From the in vitro scFv library of immunised mice) VH: QVQLQQPGAELVRPGTSVKLSCKASGYTFTSYWMHWVKERPGQGLEWIGVIDPSDSYTNYNQKFKDKATLTVDTSSSTAYMQLSSLTSEDSAVYYCARSPFDYWGQGTTLTVSS VL: DIQMTQSQKFMSTSVGDRVSVTCKASQNVGTNVAWYQQKPGQSPKALIYSASYRYSGVPDRFIGSGSGTDFTLTIRNVQSEDLAEYFCQQHNSYPFTFGGGTKLEIK ?
Key: 7.08

Exercise: What does the record list as pKd for 1-C09-1 (antibody, V domains shown, From the in vitro scFv library of immunised mice) VH: QVQLQQPGTELVRPGTSVKMSCKASGYTFTSYWMHWVKQRPGQGLEWIGVIDPSDSYTQYNQKFKGKATLTVDTSSSTAYMQLSSLTSEDSAVYYCARSPFDYWGQGTTLTVSS VL: DIVMTQSQKFMSTSVGDRVSVTCKASQNVGTNVAWYQQKPGQSPKALIYSASYRYSGIPDRFTGSGSGTDFTLTISNVQSEDLADFFCQQYNSYPFTFGGGTKLEIK ?
Key: 6.82

Exercise: What does the record list as pKd for 1-F12-1 (antibody, V domains shown, From the in vitro scFv library of immunised mice) VH: EVQLQQPGAELVRPGTSVKLSCKASGYTFTSYWMHWVKQRPGQGLEWIGVIDPSDSYTQYNQKFKGKATLTVDTSSSTAYMQLSSLTSEDSAVYYCARSPFDYWGQGTTVTVSS VL: DIVMTQSHKFMSTSVGDRVSITCKASQDVSTAVAWYQQKPGQSPKALIYSASYRYSGVPDRFTGSGSGTDFTLTISNVQAEDLAVYYCHQHNTYPFTFGGGTKLEIK ?
Key: 7.68

***
Exercise: What does the record list as pKd for 2-D11-1 (antibody, V domains shown, From the in vitro scFv library of immunised mice) VH: EVQLQQPGAELVRPGTSVKLACKASGYTFNTYWMHWVNQRPGQGLEWIGVIDPSDSYTQYNQKFKGKATLTVDTSSSTAYMQLSSLTSEDSAVYYCARSPFDYWGQGTTLTVSS VL: DVQMTQSQKFMSTSVGDRVSVTCKASQNVGTNVAWYQQKPGQSPKALIYSASYRYSGVPDRFIGSGSGTDFTLTISNVQSEDLAEYFCQQHNSYPFTFGGGTKLEIK ?
Key: 7.82

Where do these numbers come from? They come from patent US20240092909A1.
